FYI, the data here is from PubChem BioAssay (NCI).

Test system: HS 578T breast
protocolText: NCI-60 one-dose screen, 48 h (100 = growth as untreated, 0 = no growth, -100 = all killed)
conditionDetails: 10 µM unless noted
Description: Growth inhibition of the HS 578T human tumor cell line is measured as a screen for anti-cancer activity. Cells are grown in 96 well plates and exposed to the test compound for 48 hours. Compounds are tested at a single concentration, which is 10^-5 M for most compounds. The reported endpoint is percent growth (GI% or GIPRCNT), where numbers from 0 - 100% represent growth inhibition, and numbers from -100% - 0 represent cell death. For example, a value of 40 represents 60% growth inhibition. […]
This is part of a sample that, as a whole, favours compounds with a hit. Of some 83,000 tested, about 20% had one in any assay.
Classify as follows. Reported growth greater than or equal to 30%: Yes. Reported growth below: No.

### Prompt Quick check, growth >= 30%? Cn1nc(CC#N)c2c(=N)n(N)cnc21
### Response Yes

### Prompt Moving on to the next molecule: Cc1ccc(NC(C(=O)c2ccccc2)c2ccccc2)cc1 (stereo not given)
### Response Yes

### Prompt How about this molecule: Cc1c2cc[nH]c(=O)c2c(C)c2c1[nH]c1cc(OCCN3CCN(C)CC3)ccc12
### Response No

### Prompt Record: CNC(=O)c1cncc(Cn2nc(C)c(NC(=O)c3ccc(COc4ccc(C(F)(F)F)cc4C)cc3)c2C)c1
### Response Yes

### Prompt What do you have for COc1ccc(C(=O)c2nc3ccccc3n2CC(=O)c2ccc(Cl)cc2)cc1 ?
### Response No

###

System: M14 melanoma
protocolText: NCI-60 one-dose screen, 48 h
conditionDetails: 10 µM unless noted
This is part of a sample that, as a whole, favours compounds with a hit. Of some 83,000 tested, about 20% had one in any assay. Active and inactive are the calls of the source. Rule for the calls: active = growth percent below 10; inactive = the rest.
Write down one outcome, taken from active, inactive

### Prompt // param item: O=C(/C=C(/C=C/c1coc2ccccc12)OB(F)F)/C=C/c1coc2ccccc12 ; yields the recorded call
### Response inactive

### Prompt Now give it for CC(=O)O[C@H]1Cc2c([nH]c3ccccc23)[C@@H](c2ccc(Cl)cc2)N1C(=O)CCNC(C)(C)C too.
### Response active

### Prompt Same thing, different molecule: C[C@H](c1nc2ccc(N)cc2[nH]1)[C@H]1CC[C@H]2[C@@H]3CCC4=CC(=O)CC[C@]4(C)[C@H]3CC[C@]12C
### Response inactive

### Prompt Okay, and O=S(=O)(NCCNc1nccc(-c2c(-c3cccc(O)c3)nc3occn23)n1)c1cccc(F)c1 ?
### Response inactive

### Prompt Note, next up: O=C(Cn1c(C(=O)c2ccccc2)nc2ccccc21)c1ccc(F)cc1
### Response inactive

###

Test system: 786-0 renal
protocolText: NCI-60 one-dose screen, 48 h (100 = growth as untreated, 0 = no growth, -100 = all killed)
conditionDetails: 10 µM unless noted
About 83,000 compounds went through this panel and 20% of them were active in at least one assay; those are over-represented in the sample as a whole.
Please provide measured growth for the entries that follow.
State the answer as a number, implicitly in %.

### Prompt What does the data say about its growth? Entry: CNC(=O)c1cc(Cn2nc(C)c(NC(=O)Nc3ccc(Cl)c(C(F)(F)F)c3)c2C)ccn1
### Response 100

### Prompt Next up: COc1ccc(/C=C/c2nc(Nc3ccc(S(=O)(=O)Nc4nc(C)cc(C)n4)cc3)c3ccccc3n2)cc1
### Response 78.8

### Prompt Moving on to the next compound: O=C1c2ccc3c4c(ccc(c24)C(=O)N1CCCNCc1ccccc1F)C(=O)N(CCCNCc1ccccc1F)C3=O
### Response -40.1

### Prompt Next compound up: O=C1Nc2ccccc2/C1=C\c1c(-c2ccccc2)nc2ccccn12
### Response 58.7

### Prompt Next compound: Cc1ccc(-n2cc(-c3ccccc3)c3c2N=NN2CCN=C32)cc1
### Response 99.3

###

System: SF-539 CNS
protocolText: NCI-60 one-dose screen, 48 h (100 = growth as untreated, 0 = no growth, -100 = all killed)
conditionDetails: 10 µM unless noted
About 83,000 compounds went through this panel and 20% of them were active in at least one assay; those are over-represented in the sample as a whole. Calls of active or inactive are those of the source. How the source made its calls: active means growth percent below 10; inactive means the rest.
Task for the reader: assign each of the following compounds its reported growth.

### Prompt Form field: reported growth of N#Cc1c(-c2cccc([N+](=O)[O-])c2)nc(SCC(=O)c2ccc(Cl)cc2)[nH]c1=O
### Response 100% (inactive)

### Prompt And what about the compound O=C(Nc1ccc(F)cc1)Nc1ccc(NC(=O)c2cc(Cl)nc3ccccc23)cc1 ?
### Response 35.6% (inactive)

### Prompt Okay, and CC(C)N1C(=O)S/C(=C2/SC(=O)N(C(C)C)C2=O)C1=O ?
### Response 86.4% (inactive)

### Prompt // same read-out, input: Cn1c2ccccc2c2c3c(c4c5ccccc5n(C)c4c21)C(=O)OC3
### Response 96.6% (inactive)

### Prompt Next up: O=[N+]([O-])c1ccc(NC(=S)N/N=C/c2cc3ccccc3n3nnnc23)cc1
### Response 9.9% (active)

###

System: U251 CNS
protocolText: NCI-60 one-dose screen, 48 h (100 = growth as untreated, 0 = no growth, -100 = all killed)
conditionDetails: 10 µM unless noted
The panel holds about 83,000 compounds, 20% with a hit somewhere; the sample as a whole holds those more often.
Task for the reader: assign each of the following compounds its reported growth.
Provide only the numeric value, understood in %.

### Prompt Look at this compound and give its reported growth. O=S(=O)(NCCNc1nccc(-c2c(-c3cccc(O)c3)nc3occn23)n1)c1ccc(C(F)(F)F)cc1
### Response 104

### Prompt Param item: CCCOc1ccc(/C=N/Nc2cc(C)nc3ccc(Cl)cc23)cc1
### Response -58.3

### Prompt Next compound: O=C(N/N=C/c1cc2ccccc2n2nnnc12)Nc1ccccc1
### Response 104

### Prompt Note, next up: O=C(c1nc2ccccc2[nH]1)C1C(c2ccc(Br)cc2)C2CC3CCCC[C@H]3N2[C@@]12C(=O)Nc1cc(Cl)ccc12 (some centres undefined)
### Response 43.9

### Prompt Further, for COc1ccc(-c2nc([C@@H](C)Sc3nc(N)cc(N)n3)c(C)s2)cc1OCCN1CCOCC1 ?
### Response 91.8

### Prompt Now this one: CC1(C)CC[C@]23CC[C@]4(C)[C@H](CC[C@@H]5[C@@]6(C)CCCNC(C)(C)[C@@H]6CC[C@]54C)[C@H]2[C@H]1OC3
### Response -75.6

### Prompt # repeat for Nc1c(C(=O)Nc2ccnc3ccccc23)sc2nc3c(cc12)CN(Cc1ccccc1)CC3
### Response 98

### Prompt // next record O=C(Nc1cccc(C(=O)N2CCc3ccc(Cl)cc32)c1)c1ccco1
### Response 36.7

### Prompt Also need COc1ccc(C(=O)c2cc(OC)c(OC)c(OC)c2)cc1O , thanks.
### Response 20.5

###

Test system: M14 melanoma
protocolText: NCI-60 one-dose screen, 48 h
conditionDetails: 10 µM unless noted
Compounds without any hit were thinned out: in the full panel of roughly 83,000, 20% have a hit. Active and inactive are the calls of the source. Rule for the calls: active = growth percent below 10; inactive = the rest.
Response enum: active, inactive

### Prompt Entry CC(=O)OC[C@]12CC[C@@H](C(=O)CBr)[C@@H]1[C@H]1CC[C@@H]3[C@@]4(C)CC[C@H](OC(C)=O)C(C)(C)[C@@H]4CC[C@@]3(C)[C@]1(C)CC2 : call = ?
### Response inactive

### Prompt // query: O=C(c1nnc(Nc2ccccc2Br)o1)c1c[nH]c2ccccc12
### Response inactive

### Prompt Likewise for Oc1ccc(C2c3ccccc3Oc3ccccc32)c2cccnc12 ?
### Response active

### Prompt Input C=CCn1c(-c2ccc(-c3nc4ccc(C)cc4[nH]3)cc2)n[nH]c1=S
### Response inactive

### Prompt Queued: C=C(C)[C@@H]1CC[C@]2(C(=O)N3CCN(C)CC3)CC[C@]3(C)[C@H](CC[C@@H]4[C@@]5(C)C/C(=C/c6ccncc6)C(=O)C(C)(C)[C@@H]5CC[C@]43C)[C@@H]12
### Response inactive

### Prompt // repeat for O=C1Nc2cc(-c3ccc(NC(=O)C4CC4)cc3)ccc2/C1=C/c1ccc[nH]1 and report
### Response inactive

### Prompt Same read-out for C=C1C(=O)O[C@H]2[C@H]1CC/C(CNS(=O)(=O)c1cccc3ccccc13)=C\CC[C@@]1(C)O[C@@H]21 ?
### Response inactive

### Prompt Same question for CC(=O)N1N=C(c2ccc(-n3ccc(C(F)(F)F)n3)c(F)c2)CC1c1ccc[nH]1 (configuration not stated) please.
### Response inactive

### Prompt Then CCOC(=O)c1cc(C(=O)c2ccc(OC)c(OC)c2)n2ccc(/C=C/c3cc[n+](CC(=O)c4ccc(OC)c(OC)c4)cc3)cc12 ?
### Response inactive

### Prompt Here is the next molecule: O=C(Nc1ccc(F)cc1)Nc1ccc(NC(=O)c2cc(Cl)nc3ccccc23)cc1
### Response inactive

### Prompt Record: NNC(=O)c1ccc(-n2nc(-c3ccccc3)c3ccccc32)cc1
### Response inactive

### Prompt Here is the next molecule: N/C(=N\C(N)=N\c1nc2ccccc2s1)c1ccnc(Br)c1
### Response inactive

### Prompt Then CC1(C)CC(=O)C2=C(C1)N(c1ccc(F)cc1F)C(N)=C(C#N)C2c1cc(Br)ccc1F (configuration not stated) ?
### Response inactive

### Prompt And what about the molecule CCOC(=O)c1cc(C(=O)c2cc(OC)cc(OC)c2)n2ccc3ccccc3c12 ?
### Response inactive

### Prompt Now this one: O=C1Nc2cc(-c3cccc([N+](=O)[O-])c3)ccc2/C1=C/c1ccc[nH]1
### Response inactive

### Prompt Input CCCCCCCCO/N=C\c1c2c(O)c3c(O)c(C)c4c(c3c1O)C(=O)C(C)(O/C=C\C(OC)C(C)C(OC(C)=O)C(C)C(O)C(C)C(O)C(C)/C=C\C=C(\C)C(=O)N2)O4 (configuration not stated)
### Response inactive

### Prompt Then what about the molecule CCCN1[C@@H]2CC[C@H]1/C(=C\c1ccc(OC)c(OC)c1)C(=O)/C2=C/c1ccc(OC)c(OC)c1 ?
### Response inactive
